Below: a set of entries, each annotated with reported number of binding sites (n).
assay.system: bovine serum albumin (BSA) (Bos taurus)
Construct: purchased Merck (Darmstadt, Germany)
Sequence (P02769 25-607): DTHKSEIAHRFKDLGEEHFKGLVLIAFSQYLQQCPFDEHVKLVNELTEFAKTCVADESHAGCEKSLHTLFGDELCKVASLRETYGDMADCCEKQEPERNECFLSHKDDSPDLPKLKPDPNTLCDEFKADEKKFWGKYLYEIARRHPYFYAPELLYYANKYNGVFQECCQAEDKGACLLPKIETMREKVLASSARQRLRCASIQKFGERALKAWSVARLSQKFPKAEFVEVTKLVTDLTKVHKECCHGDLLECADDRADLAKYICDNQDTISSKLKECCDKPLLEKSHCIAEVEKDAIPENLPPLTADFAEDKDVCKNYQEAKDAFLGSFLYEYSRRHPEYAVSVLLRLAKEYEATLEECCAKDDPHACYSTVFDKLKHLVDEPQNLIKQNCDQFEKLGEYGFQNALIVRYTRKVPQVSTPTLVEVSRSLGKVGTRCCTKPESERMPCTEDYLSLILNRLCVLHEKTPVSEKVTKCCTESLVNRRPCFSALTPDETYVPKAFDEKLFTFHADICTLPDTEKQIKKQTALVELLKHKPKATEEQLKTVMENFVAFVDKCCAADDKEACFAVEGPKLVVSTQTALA
protocol.notes: Fluorescence quenching of BSA by flavonoids (Stern–Volmer, binding equation, van't Hoff)
recorded.conditions: BSA fluorescence quenching

// solved cases for number of binding sites (n) follow
O=c1c(O)c(-c2ccc(O)cc2)oc2cc(O)cc(O)c12    1.33 ± 0.03
O=c1c(-c2ccc(O)cc2)coc2cc(O)cc(O)c12    1.22 ± 0.04
O=c1c(-c2ccc(O)cc2)coc2cc(O[C@@H]3O[C@H](CO)[C@@H](O)[C@H](O)[C@H]3O)cc(O)c12    0.94 ± 0.01
O=c1c(O)c(-c2ccc(O)cc2O)oc2cc(O)cc(O)c12 [morin, 3,5,7,2′,4′-pentahydroxyflavone]    1.10 ± 0.02

Let us move to another entry and its number of binding sites (n).
# lookup: number of binding sites (n) of O=c1c(O)c(-c2ccc(O)c(O)c2)oc2cc(O)cc(O)c12 1.13 ± 0.02
